- test.method.notes: Multiple dose study: plasma pharmacokinetics and urinary excretion
- Assay type: in vivo, humans
- measurement.context: male, human, plasma, oral, 100 mg, eplerenone 100 mg Dose; Single Dose; read-out: T½ (converted)
readout.name: half-life

[
  {
    "compound": "COC(=O)C1CC2=CC(=O)CCC2(C)C23OC2CC2(C)C(CC[C@@]24CCC(=O)O4)C13 (stereo partly shown)",
    "meas.value": "3.9 h"
  }
]

###

- test.method.notes: Single dose study: plasma pharmacokinetics of eplerenone, open lactone ring form, spironolactone
- measurement.context: male, human, plasma, po, 100 mg
- Procedure: The pharmacokinetics, safety and antialdosterone activity of single 10, 50, 100, 300 and 1000 mg oral doses of eplerenone were evaluated in a single-center, randomized, double-blind, placebo-controlled study. The study employed seven parallel dose groups of eight healthy male humans. The eplerenone capsules administered corresponded to the capsules (or combinations of the capsules) disclosed in Examples 4, 5, 7 and 8 above. The placebo was a conventional capsule containing lactose. […]

[
  {
    "compound": "COC(=O)C1CC2=CC(=O)CCC2(C)C23OC2CC2(C)C(CC[C@@]24CCC(=O)O4)C13 (stereo partly shown)",
    "unit.info": "ng/mL",
    "concentration at 12 h": 124
  }
]
